Values were extracted from patent US20260116991A1.

# OD450 at 34.72 nM annotations
Target: biotinylated labeled human GPC3 protein (produced in-house) (human, UniProt P51654 25-559, limits assumed, biotinylated (Dojindo, Cat. No. LK03); sites not stated)
Experiment: ELISA, biotinylated human GPC3 protein
Give the value, in units of OD450, as a plain number.

Here's what some known entries look like.
Binder	Unit annotation	OD450 at 34.72 nM
hAb007LH1L1e (antibody, human IgG1, V domains shown, Humanized F3.81.19; VH H1 + VL L1e; expressed as human IgG1) VH: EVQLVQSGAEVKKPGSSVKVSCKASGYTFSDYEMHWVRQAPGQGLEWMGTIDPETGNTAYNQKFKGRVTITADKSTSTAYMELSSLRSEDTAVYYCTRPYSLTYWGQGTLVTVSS VL: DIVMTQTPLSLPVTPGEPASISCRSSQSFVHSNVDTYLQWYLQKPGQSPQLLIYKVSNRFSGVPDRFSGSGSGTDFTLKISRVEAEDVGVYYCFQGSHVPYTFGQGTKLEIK	OD450	0.921
hAb007LH1L1c (antibody, human IgG1, V domains shown, Humanized F3.81.19; VH H1 + VL L1c; expressed as human IgG1) VH: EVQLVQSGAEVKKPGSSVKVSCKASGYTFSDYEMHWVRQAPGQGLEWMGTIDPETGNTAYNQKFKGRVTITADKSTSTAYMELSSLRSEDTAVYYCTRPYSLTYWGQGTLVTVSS VL: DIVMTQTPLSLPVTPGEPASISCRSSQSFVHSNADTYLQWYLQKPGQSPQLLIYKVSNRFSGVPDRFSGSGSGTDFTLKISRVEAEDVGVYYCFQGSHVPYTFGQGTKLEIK	OD450	1.29

Kindly consider the entry below.
Query :: Fill in the blank: the reported OD450 at 34.72 nM of hAb006LH3L1c (antibody, human IgG1, V domains shown, Humanized F3.38.7; VH H3 + VL L1c; expressed as human IgG1) VH: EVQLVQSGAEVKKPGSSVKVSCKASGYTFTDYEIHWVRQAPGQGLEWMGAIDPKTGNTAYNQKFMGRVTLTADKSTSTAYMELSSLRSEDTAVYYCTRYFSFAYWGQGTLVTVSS VL: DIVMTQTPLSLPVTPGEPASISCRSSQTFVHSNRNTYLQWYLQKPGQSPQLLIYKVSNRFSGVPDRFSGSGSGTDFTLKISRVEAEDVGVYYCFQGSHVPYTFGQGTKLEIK is ____.
Result :: 1.36
